Reference for the values: patent US20230248800A1

biological target: human V1a receptor (human) (UniProt P37288); assay: cell-based or functional assay
Sequence (P37288 whole entry): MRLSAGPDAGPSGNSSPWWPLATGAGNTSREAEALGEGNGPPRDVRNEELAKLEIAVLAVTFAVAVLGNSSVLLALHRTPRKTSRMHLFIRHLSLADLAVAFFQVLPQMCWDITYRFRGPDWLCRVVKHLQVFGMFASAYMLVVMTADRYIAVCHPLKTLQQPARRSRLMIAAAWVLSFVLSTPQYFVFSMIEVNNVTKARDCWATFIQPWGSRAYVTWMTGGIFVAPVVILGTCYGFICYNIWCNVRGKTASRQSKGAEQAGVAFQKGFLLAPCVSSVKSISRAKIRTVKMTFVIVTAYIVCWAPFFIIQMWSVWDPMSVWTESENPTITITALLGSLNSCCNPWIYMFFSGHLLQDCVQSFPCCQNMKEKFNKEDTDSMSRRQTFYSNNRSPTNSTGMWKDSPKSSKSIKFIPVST
outcome-measure: Estimated V1a EC50 (calcium flux) (nM)
Numbers only; they are read as nM.

Field: example entries. Status: answers known.
binder	meas-value
XFXNCPXG (Mpa at position 1, disulfide bond between Mpa and Cys; Hgn at position 4; (Gly)2 on the side chain of Lys 8; C-terminal amide) [Mpa-Tyr-Phe-Hgn-Asn-Cys-Pro-Lys(X)a-Gly-NH2; (X)a = (Gly)2 [SEQ ID NO. 9]]	38.2
XFXNCPXG (Mpa at position 1, disulfide bond between Mpa and Cys; Hgn at position 4; (Gly)5 on the side chain of Lys 8; C-terminal amide) [Mpa-Tyr-Phe-Hgn-Asn-Cys-Pro-Lys(X)a-Gly-NH2; (X)a = (Gly)5 [SEQ ID NO. 12]]	50.1

Kindly note the recorded Estimated V1a EC50 (calcium flux) for XFXNCPXG (Mpa at position 1, disulfide bond between Mpa and Cys; Hgn at position 4; Gly on the side chain of Lys 8; C-terminal amide) [Mpa-Tyr-Phe-Hgn-Asn-Cys-Pro-Lys(X)-Gly-NH2; X = Gly [SEQ ID NO. 8]] , which is 25.3
